# protocol: self-splicing fitness, log relative to wild type (ln ratio); higher = more splicing; Tetrahymena group I intron in knt gene, E. coli kanamycin selection, DiMSum; sequences stand for … in CUCUCU…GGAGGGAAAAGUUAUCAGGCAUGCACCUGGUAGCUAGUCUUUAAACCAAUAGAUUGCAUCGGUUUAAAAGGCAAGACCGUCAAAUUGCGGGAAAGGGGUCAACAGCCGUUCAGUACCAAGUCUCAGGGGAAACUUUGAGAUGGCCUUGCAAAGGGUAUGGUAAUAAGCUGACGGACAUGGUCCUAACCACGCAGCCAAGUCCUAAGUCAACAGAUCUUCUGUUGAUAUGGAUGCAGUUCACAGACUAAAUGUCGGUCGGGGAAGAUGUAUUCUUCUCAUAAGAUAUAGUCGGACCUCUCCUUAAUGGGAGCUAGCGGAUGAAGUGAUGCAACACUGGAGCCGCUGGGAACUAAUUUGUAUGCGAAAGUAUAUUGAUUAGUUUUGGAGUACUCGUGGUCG;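 further: selection with 25 µg/mL kanamycin versus none on LB agar overnight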
# experimental-conditions: 37 °C
Outcome label depends on self-splicing fitness (ln) relative to -2: at/above gives 1 (yes), below gives 0 (no).

Q: Is it the case that `AAUUAGCAAUAUUACGCGCG` has self-splicing fitness (ln) reaching or exceeding -2?
Ans: 1 (yes)

Q: Evaluate `GCGGAGCAAUAUUACGUCGU` : self-splicing fitness (ln) at minimum -2?
Ans: 0 (no)

Q: Confirm if self-splicing fitness (ln) reported for the sequence `AGGGAGCAAUAUUACGUCGU` is -2 or above.
Ans: 0 (no)

Q: Does `GAAUAGCAAUAUUACGCCGG` have a reported self-splicing fitness (ln) of at least -2?
Ans: 1 (yes)

Q: Reported self-splicing fitness (ln) reaches at least -2 for `AGCUAGCAAUAUUACGGGAG` ?
Ans: 0 (no)

Q: self-splicing fitness (ln) >= -2 for `GCAGAGCAAUAUUACGCGCU` ?
Ans: 0 (no)

Q: In plain terms: is recorded self-splicing fitness (ln) at least -2 for `ACUCAGCAAUAUUACGCAAA` ?
Ans: 1 (yes)

Q: Could you please find out whether `GGAGAGCAAUAUUACGGUCA` has self-splicing fitness (ln) that meets -2 or exceeds it?
Ans: 0 (no)

Q: # check: self-splicing fitness (ln) of `UAUUAGCAAUAUUACGCUGC` is greater than or equal to -2
Ans: 0 (no)

Q: # check: self-splicing fitness (ln) of `CGAGAGCAAUAUUACGUGAU` is greater than or equal to -2
Ans: 0 (no)

Q: Say whether `ACAGAGCAAUAUUACGGAUC` shows self-splicing fitness (ln) of -2 or more.
Ans: 1 (yes)
